Origin of measurements: patent US20260232812A1

target: BRD4 (Homo sapiens); construct: HEK293 containing a HiBit insertion for BRD4; endogenous in cells; host or cells: HEK293 with a HiBiT insertion for BRD4; experiment: Assay 1 - Degradation of HiBit-BRD4 in HEK293; type: cell-based; settings: HiBit-BRD4 in HEK293, 6 h treatment
quantity kind: Dmax

For the compound CC(=O)N1c2ccc(-c3ccc(C(=O)NCCOCCOCCOCCOCCOCCNC(=O)[C@@H]4CN(C(=O)/C(C#N)=C/c5ccc(F)cc5)C[C@H]4C(C)C)cc3)cc2[C@H](Nc2ccc(Cl)cc2)C[C@@H]1C [Example 15i] , what Dmax is on record?
50 to 70%

Follow-up entry: CC(=O)N1c2ccc(-c3ccc(C(=O)NCCOCCOCCOCCOCCOCCNC(=O)[C@@H]4CN(C(=O)/C(C#N)=C/c5nccs5)C[C@H]4C4CCCCC4)cc3)cc2[C@H](Nc2ccc(Cl)cc2)C[C@@H]1C [Example 15p]
≥ 70%

Follow-up entry: CC(=O)N1c2ccc(-c3ccc(C(=O)NCCOCCOCCOCCOCCOCCNC(=O)[C@@H]4CN(C(=O)/C(C#N)=C/C(C)(C)CN5CCOCC5)C[C@H]4c4ccc(F)cc4)cc3)cc2[C@H](Nc2ccc(Cl)cc2)C[C@@H]1C [Example 15ai]
30 to 50%

Follow-up entry: COc1ccc([C@@H]2CN(C(=O)/C(C#N)=C/c3nccs3)C[C@H]2C(=O)NCCOCCOCCOCCOCCOCCNC(=O)c2ccc(-c3ccc4c(c3)[C@H](Nc3ccc(Cl)cc3)C[C@H](C)N4C(C)=O)cc2)cc1 [Example 15z]
30 to 50%

Follow-up entry: CC(=O)N1c2ccc(-c3ccc(C(=O)NCCOCCOCCOCCOCCOCCNC(=O)[C@@H]4CN(C(=O)/C(C#N)=C/C(C)(C)C)C[C@H]4c4cccc(C)c4)cc3)cc2[C@H](Nc2ccc(Cl)cc2)C[C@@H]1C [Example 15ak]
≥ 70%

Follow-up entry: COc1ccc(C2CC(C(=O)NCCOCCOCCOCCOCCOCCNC(=O)c3ccc(-c4ccc5c(c4)[C@H](Nc4ccc(Cl)cc4)C[C@H](C)N5C(C)=O)cc3)CN(C(=O)/C(C#N)=C/c3ccc(F)cc3)C2)cc1 (stereo partly drawn) [Example 13ah]
≥ 70%

Follow-up entry: COc1ccc(C2CC(C(=O)NCCOCCOCCOCCOCCOCCNC(=O)c3ccc(-c4ccc5c(c4)[C@H](Nc4ccc(Cl)cc4)C[C@H](C)N5C(C)=O)cc3)CN(C(=O)/C(C#N)=C/C(C)(C)CN3CCOCC3)C2)cc1 (stereo partly drawn) [Example 13ai]
30 to 50%

Follow-up entry: CC(=O)N1c2ccc(-c3ccc(C(=O)NCCOCCOCCOCCOCCOCCNC(=O)CN4CCC(C5CCCN5C(=O)/C(C#N)=C/c5cscn5)CC4)cc3)cc2[C@H](Nc2ccc(Cl)cc2)C[C@@H]1C (stereo partly drawn) [Example 14a]
≥ 70%

Follow-up entry: CC(=O)N1c2ccc(-c3ccc(C(=O)NCCOCCOCCOCCOCCOCCNC(=O)[C@@H]4CN(C(=O)/C(C#N)=C/c5nccs5)C[C@H]4c4ccccc4)cc3)cc2[C@H](Nc2ccc(Cl)cc2)C[C@@H]1C [Example 15u]
50 to 70%

---

target: BRD4 (Homo sapiens, UniProt O60885); construct: HEK293 containing a HiBit insertion for BRD4; endogenous in cells; host or cells: HEK293 with a HiBiT insertion for BRD4; assay: Assay 1 - Degradation of HiBit-BRD4 in HEK293; assay type: cell-based; conditions: HiBit-BRD4 in HEK293, 6 h treatment
Kindly supply the reported DC50 values for the records listed here.

For the compound COc1ccc(C2CC(C(=O)NCCOCCOCCOCCOCCOCCNC(=O)c3ccc(-c4ccc5c(c4)[C@H](Nc4ccc(Cl)cc4)C[C@H](C)N5C(C)=O)cc3)CN(C(=O)/C(C#N)=C/c3nccs3)C2)cc1 (stereo partly shown) [Example 13ae] , what DC50 is on record?
25 to 200 nM

Follow-up entry: CC(=O)N1c2ccc(-c3ccc(C(=O)NCCOCCOCCOCCOCCOCCNC(=O)C4CC(c5cccc(C)c5)CN(C(=O)/C(C#N)=C/c5ccc(F)cc5)C4)cc3)cc2[C@H](Nc2ccc(Cl)cc2)C[C@@H]1C (stereo partly shown) [Example 13aw]
> 200 nM

Follow-up entry: CC(=O)N1c2ccc(-c3ccc(C(=O)NCCOCCOCCOCCOCCOCCNC(=O)C4CC(c5cccc(C)c5)CN(C(=O)/C(C#N)=C/C(C)(C)CN5CCOCC5)C4)cc3)cc2[C@H](Nc2ccc(Cl)cc2)C[C@@H]1C (stereo partly shown) [Example 13ax]
< 25 nM

Follow-up entry: CC(=O)N1c2ccc(-c3ccc(C(=O)NCCOCCOCCOCCOCCOCCNC(=O)[C@@H]4CN(C(=O)/C(C#N)=C/c5ccn(C)n5)C[C@H]4c4ccc(F)cc4)cc3)cc2[C@H](Nc2ccc(Cl)cc2)C[C@@H]1C [Example 15ag]
25 to 200 nM
